Each entry below carries its recorded log10 Ki.
molecular target: GST-tagged-Wee1 kinase (Homo sapiens, UniProt P30291); assay: Wee1 time-resolved fluorescence equilibrium binding assay (displacement of Oregon Green-labeled ATP-competitive kinase probe)
Sequence (P30291 whole entry): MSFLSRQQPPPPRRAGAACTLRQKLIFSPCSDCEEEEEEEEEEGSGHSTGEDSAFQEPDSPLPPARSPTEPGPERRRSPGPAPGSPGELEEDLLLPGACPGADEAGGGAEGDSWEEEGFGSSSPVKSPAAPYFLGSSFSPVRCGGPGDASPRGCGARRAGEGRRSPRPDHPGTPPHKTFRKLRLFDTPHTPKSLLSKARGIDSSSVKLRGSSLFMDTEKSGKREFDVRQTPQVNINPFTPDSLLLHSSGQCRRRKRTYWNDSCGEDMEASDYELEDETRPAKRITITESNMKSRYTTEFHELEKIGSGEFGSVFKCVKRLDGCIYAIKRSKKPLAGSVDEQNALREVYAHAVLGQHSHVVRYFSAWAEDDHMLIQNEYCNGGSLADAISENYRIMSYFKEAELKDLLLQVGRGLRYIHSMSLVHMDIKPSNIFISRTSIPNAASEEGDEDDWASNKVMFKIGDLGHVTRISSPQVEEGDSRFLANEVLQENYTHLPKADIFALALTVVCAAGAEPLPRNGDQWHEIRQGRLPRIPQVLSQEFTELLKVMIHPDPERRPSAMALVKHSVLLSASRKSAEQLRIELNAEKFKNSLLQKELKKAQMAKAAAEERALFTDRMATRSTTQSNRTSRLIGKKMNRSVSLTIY
Could you please treat all values as log10 of Ki in nM?

Below, 6 compounds whose answers are already recorded.
| Compound | log10 Ki |
| --- | --- |
| CN1CCN(c2ccc(Nc3ncc4c(=O)n(-c5c(Cl)cccc5Cl)nc(-c5nccn5C)c4n3)cc2)CC1 [Example 354] | 2.87 |
| CC(=O)N1Cc2cc(Nc3ncc4c(=O)n(-c5c(Cl)cccc5Cl)nc(C)c4n3)ccc2C(C)(C)C1 [Example 439] | -0.16 |
| O=c1c2cnc(Nc3ccc4c(c3)CNCC4)nc2c(-c2ccncc2)nn1-c1c(Cl)cccc1Cl [Example 224] | -1.15 |
| Cc1ccccc1-n1nc(-c2ccccc2)c2nc(Nc3ccc4c(c3)CN(C)CC4)ncc2c1=O [Example 171] | -0.22 |
| CC(=O)N1Cc2cc(Nc3ncc4c(=O)n(-c5c(Cl)cccc5Cl)nc(C(F)F)c4n3)ccc2C2(CC2)C1 [Example 415] | 0.00 |
| CCc1nn(-c2c(Cl)cccc2Cl)c(=O)c2cnc(Nc3ccc4c(c3)CNC(=O)C4)nc12 [Example 464] | 0.20 |

Switching to the query record.
QUERY: Need log10 Ki of CCc1nn(-c2c(Cl)cccc2Cl)c(=O)c2cnc(Nc3ccc4c(c3)CCN(C)C4)nc12 [Example 492] , thanks.
RESULT: -0.25

The reported measurements were obtained from patent US8796289B2.
